Reference for the values: ChEMBL document CHEMBL1949655

Tested on: Pseudomonas aeruginosa
Test: microbe, parasite or virus in culture
Type: functional
Settings: ATCC 27853, 24 h
Description: Antibacterial activity against Pseudomonas aeruginosa ATCC 27853 after 24 hrs by macrobroth dilution method
Recorded measurements of MIC90, one per entry
Please respond with the number in µg/mL and leave the unit unwritten.

Task item: Can you look up the measured MIC90 of NC[C@@H]1O[C@H](O[C@H]2[C@@H](O)[C@H](O[C@@H]3[C@@H](O)[C@H](N)C[C@H](N)[C@H]3O[C@H]3O[C@H](CN)[C@@H](O)[C@H](O)[C@H]3N)O[C@@H]2CO)[C@H](N)[C@@H](O)[C@@H]1O.O.O=S(=O)(O)O [NEOMYCIN TRISULFATE HYDRATE] for me?
Reply: 512

Task item: And `CC(C)(C)CC(C)(C)c1ccc(OCc2cn(C[C@H]3O[C@@H](O[C@@H]4[C@@H](O)[C@H](N)C[C@H](N)[C@H]4O[C@H]4O[C@H](CN)[C@@H](O)[C@H](O)[C@H]4N)[C@H](O)[C@@H]3O[C@H]3O[C@@H](CN)[C@@H](O)[C@H](O)[C@H]3N)nn2)c(Cc2ccc(Cl)cc2Cl)c1` ?
Reply: 128

* * *

Test system: Klebsiella pneumoniae
Assay: microbe, parasite or virus in culture
Format: functional
Conditions: ATCC 13883, 24 h
Description: Antibacterial activity against Klebsiella pneumoniae ATCC 13883 after 24 hrs by macrobroth dilution method
RECORDED METRIC: MIC90 (µg/mL)
Please respond with the number in µg/mL and leave the unit unwritten.

Here are 3 molecules together with their reported answers.
{"SMILES NOTATION": "CC(C)(C)CC(C)(C)c1ccc(OCCCCc2cn(C[C@H]3O[C@@H](O[C@@H]4[C@@H](O)[C@H](N)C[C@H](N)[C@H]4O[C@H]4O[C@H](CN)[C@@H](O)[C@H](O)[C@H]4N)[C@H](O)[C@@H]3O[C@H]3O[C@@H](CN)[C@@H](O)[C@H](O)[C@H]3N)nn2)c(Cc2ccc(Cl)cc2Cl)c1", "MEASUREMENT TARGET": "Klebsiella pneumoniae", "MIC90 (µg/mL)": 32}
{"SMILES NOTATION": "Cc1cc(O)cc(C)c1Cl", "MEASUREMENT TARGET": "Klebsiella pneumoniae", "MIC90 (µg/mL)": 256}
{"SMILES NOTATION": "Oc1cc(Cl)ccc1Oc1ccc(Cl)cc1Cl", "MEASUREMENT TARGET": "Klebsiella pneumoniae", "MIC90 (µg/mL)": 1}

Now consider a different molecule.
Task item: Can you look up the measured MIC90 of `Cc1cc(OCCCCc2cn(C[C@H]3O[C@@H](O[C@@H]4[C@@H](O)[C@H](N)C[C@H](N)[C@H]4O[C@H]4O[C@H](CN)[C@@H](O)[C@H](O)[C@H]4N)[C@H](O)[C@@H]3O[C@H]3O[C@@H](CN)[C@@H](O)[C@H](O)[C@H]3N)nn2)cc(C)c1Cl` for me?
Reply: 4

* * *

Tested on: Streptococcus pneumoniae
Experiment: microbe, parasite or virus in culture
Type: functional
Settings: ATCC 49619, 24 h
Description: Antibacterial activity against Streptococcus pneumoniae ATCC 49619 after 24 hrs by macrobroth dilution method in the presence of bovine serum albumin
RECORDED METRIC: MIC90 (µg/mL)
Please respond with the number in µg/mL and leave the unit unwritten.

{"COMPOUND": "Cc1cc(OCc2cn(C[C@H]3O[C@@H](O[C@@H]4[C@@H](O)[C@H](N)C[C@H](N)[C@H]4O[C@H]4O[C@H](CN)[C@@H](O)[C@H](O)[C@H]4N)[C@H](O)[C@@H]3O[C@H]3O[C@@H](CN)[C@@H](O)[C@H](O)[C@H]3N)nn2)cc(C)c1Cl", "MIC90 (µg/mL)": 128}
{"COMPOUND": "CC(C)(C)CC(C)(C)c1ccc(OCc2cn(C[C@H]3O[C@@H](O[C@@H]4[C@@H](O)[C@H](N)C[C@H](N)[C@H]4O[C@H]4O[C@H](CN)[C@@H](O)[C@H](O)[C@H]4N)[C@H](O)[C@@H]3O[C@H]3O[C@@H](CN)[C@@H](O)[C@H](O)[C@H]3N)nn2)c(Cc2ccc(Cl)cc2Cl)c1", "MIC90 (µg/mL)": 128}

Now consider a different compound.
Task item: Can you look up the measured MIC90 of NC[C@@H]1O[C@H](O[C@H]2[C@@H](O)[C@H](O[C@@H]3[C@@H](O)[C@H](N)C[C@H](N)[C@H]3O[C@H]3O[C@H](CN)[C@@H](O)[C@H](O)[C@H]3N)O[C@@H]2CO)[C@H](N)[C@@H](O)[C@@H]1O.O.O=S(=O)(O)O [NEOMYCIN TRISULFATE HYDRATE] for me?
Reply: 8
